Origin of measurements: PubChem BioAssay AID617

System: E. coli BW25113 ΔtolC growth inhibition, OD615
assay_details: growth inhibitors of E. coli tolC mutant, dose response, strain BW25113 ΔtolC::kan (AID 617);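 also: growth read after 20 h at 37 °C with compound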
The following compounds are listed with their measured IC50 values.

CCOCCn1c(CN(Cc2ccccc2)Cc2ccccc2)nc2c1c(=O)n(C)c(=O)n2C	13.2 µM
COc1ccc(C(=O)Nn2cnc3scc(-c4cccs4)c3c2=O)c(O)c1	3.24 µM
CCOC(=O)CSC1=C(C#N)C(c2ccco2)C(C(=O)Nc2cccc(C(F)(F)F)c2)=C(C)N1 (stereo unspecified)	9.34 µM
COc1ccc(C2(O)CC3CCC(C2)N3c2nc(C)cc(C)c2C#N)cc1 (stereo unspecified)	24.6 µM
c1ccc(-c2nc(NCc3ccco3)c3ccccc3n2)nc1	5.54 µM
O=C(Nc1ccc(N2CCN(C(=O)c3ccco3)CC2)c(Cl)c1)c1c(F)c(F)c(F)c(F)c1F	3.96 µM
CCOC(=O)C1CCCN(c2ncnc3c2cnn3-c2ccc(Cl)cc2)C1 (stereo unspecified)	9.92 µM
O=c1ccsn1Cc1ccccc1	3.15 µM
CCC(Sc1nnnn1-c1ccccc1)C(=O)Nc1nc2ccccc2s1 (stereo unspecified)	5.44 µM
CC1=CC(C)(C)N2C(=O)C3(C(C#N)=C(N)Oc4cc(O)ccc43)c3cccc1c32 (stereo unspecified)	4.14 µM

Lookup: IC50 / E. coli BW25113 ΔtolC growth inhibition, OD615 / Oc1ccccc1-c1cc(-c2ccc3c(c2)OCCO3)n[nH]1
8.15 µM

Okay, and COc1ccc(-c2[nH]ncc2-c2ccc(Cl)cc2)c(O)c1 ?
4.52 µM

Okay, and CCCCOc1ccc(S(=O)(=O)Nc2cc(OC)ccc2OC)cc1 ?
16.8 µM

Okay, and N#Cc1c(NC(=O)c2ccc(Br)o2)n(-c2ccccc2)c2nc3ccccc3nc12 ?
15.3 µM

Okay, and CCOc1ccc2[nH]c3c(N4CCN(c5ccccn5)CC4)ncnc3c2c1 ?
12.2 µM

Okay, and Cc1onc(-c2ccccc2)c1C(=O)Nc1sc2c(c1C#N)CCC2 ?
10.1 µM

Okay, and CCN1/C(=C(\O)c2ccccc2)C(=O)c2ccccc2S1(=O)=O ?
4.56 µM

Okay, and CC1Cc2cc(-c3csc(NC(=O)Cc4cccs4)n3)ccc2N1S(C)(=O)=O (stereo unspecified) ?
15.3 µM

Okay, and CCOC(=O)c1ccc(N2C(=O)c3n[nH]c(C)c3C2c2ccc(OC)cc2OC)cc1 (stereo unspecified) ?
16.8 µM

###

Test system: E. coli BW25113 ΔtolC growth inhibition, OD615
assay_details: growth inhibitors of E. coli tolC mutant, dose response, strain BW25113 ΔtolC::kan (AID 617);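 also: growth read after 20 h at 37 °C with compound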
outcome_measure: pIC50
Remember, pIC50 is on a log scale: it is -log10 of the molar concentration.

Field: example entries. Status: answers known.
COc1ccc(OC)c(S(=O)(=O)n2cnc3cc(C)c(C)cc32)c1	4.94
CCCC(=O)c1ccc(N2CCCCCC2)c(F)c1	4.02
CCn1c(C(=O)N2CCC(Cc3ccccc3)CC2)cc2sccc21	4.99
Cc1ccc(-n2c(C)cc(C(=O)COC(=O)c3c(C)noc3C)c2C)cc1	5.25
O=C(c1ccc(COc2ccccc2Br)o1)N1CCCCCC1	4.01

Lookup: pIC50 / E. coli BW25113 ΔtolC growth inhibition, OD615 / Cc1cccc(Cn2c(=O)n(Cc3ccco3)c(=O)c3ccccc32)c1
5.17

Okay, and O=C(Nc1nnc(-c2ccc(Cl)cc2)o1)c1ccccc1Br ?
6.40

Okay, and C=CCc1cc(C)ccc1OCC(O)CN1CCN(c2ccccc2)CC1 (stereo unspecified) ?
4.77

Okay, and O=C(Nc1ccc(Cl)c(Cl)c1)OCc1cccnc1 ?
4.86

Okay, and COc1cccc(NC(=O)N2CCN(c3cccc(C)c3C)CC2)c1 ?
4.87

###

The following compounds are listed with their measured pIC50 values.
Test system: E. coli BW25113 ΔtolC growth inhibition, OD615
assay_details: growth inhibitors of E. coli tolC mutant, dose response, strain BW25113 ΔtolC::kan (AID 617);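 also: growth read after 20 h at 37 °C with compound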
Remember, pIC50 is on a log scale: it is -log10 of the molar concentration.

O=S(=O)(Nc1cc(Cl)ccc1N1CCCCC1)c1cccs1	4.90

Lookup: pIC50 / E. coli BW25113 ΔtolC growth inhibition, OD615 / N#Cc1nc(COc2ccccc2F)oc1NCCc1ccccc1
4.78

Okay, and Cc1nc2c(C(=O)NCCC3=CCCCC3)c[nH]n2c(=O)c1Cl ?
5.08

Okay, and CCSc1nnc(NC(=O)CSc2nccn2-c2cccc(C)c2C)s1 ?
5.28

Okay, and Cc1cc(Cl)ccc1OC(C)C(=O)Nc1ccccc1N1CCOCC1 (centres undefined) ?
5.07

###

Tested on: E. coli BW25113 ΔtolC growth inhibition, OD615
assay_details: growth inhibitors of E. coli tolC mutant, dose response, strain BW25113 ΔtolC::kan (AID 617);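 also: growth read after 20 h at 37 °C with compound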
The following compounds are listed with their measured pIC50 values.
Remember, pIC50 is on a log scale: it is -log10 of the molar concentration.

Field: example entries. Status: answers known.
COc1ccc2c(c1)OC(O)(C(F)(F)C(F)F)CC2=O (stereo not given)	5.11
COc1ccc2c(c1)sc1nc(-c3ccccc3)cn12	4.91
c1ccc(Cn2nnnc2C(c2cccs2)N2CCCCCC2)cc1 (stereo not given)	5.02
c1ccc(CSc2nnc(-c3ccco3)c(-c3ccco3)n2)cc1	4.96

With those in mind, consider the next compound.
Fill in: pIC50 of O=C(CSc1nc(O)c(C2CCCCC2)c(=O)[nH]1)Nc1ccc(Cl)cc1 is ___
5.06

###

System: E. coli BW25113 ΔtolC growth inhibition, OD615
assay_details: growth inhibitors of E. coli tolC mutant, dose response, strain BW25113 ΔtolC::kan (AID 617);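 also: growth read after 20 h at 37 °C with compound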
The following compounds are listed with their measured IC50 values.

Field: example entries. Status: answers known.
O=C(O)c1cc(Cl)c2ccccc2c1O	10.1 µM
COc1nnc(-c2ccc(N3CCCCC3)c(N)c2)c2ccccc12	11.9 µM
CCN(CCCNC(=O)c1[nH]c(C)c(C(C)=O)c1C)c1cccc(C)c1	8.23 µM
O=C(O)C1CC=CCC1C(=O)Nc1ccc(S(=O)(=O)N2CCCc3ccccc32)cc1 (centres undefined)	8.93 µM
O=C(c1noc2c1CCc1ccccc1-2)N1CCCc2ccccc21	12.2 µM
O=C(CSc1nnc(Cc2ccccc2)n1Cc1ccco1)NC12CC3CC(CC(C3)C1)C2	61.8 µM
Cc1cccc(Cn2c(=O)c3c(nc4n3CCCN4Cc3ccccc3)n(C)c2=O)c1	20 µM
Clc1ccc(OCCn2ccnc2)c2ccccc12	5.58 µM

With those in mind, consider the next compound.
Fill in: IC50 of OC(COc1ccc(Cl)c2ccccc12)CN1CCN(c2ccccn2)CC1 (centres undefined) is ___
11.6 µM

###

System: E. coli BW25113 ΔtolC growth inhibition, OD615
assay_details: growth inhibitors of E. coli tolC mutant, dose response, strain BW25113 ΔtolC::kan (AID 617);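 also: growth read after 20 h at 37 °C with compound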
outcome_measure: IC50

Cc1csc(NC(=O)c2cccc(Cn3nc(C)c(Br)c3C)c2)n1	10.3 µM
CCOC(=O)N1CCN(c2nc3ccccc3nc2C(C#N)S(=O)(=O)c2ccc(C)cc2)CC1 (stereo not drawn)	7.88 µM
O=C1c2[nH]nc(-c3ccccc3O)c2C(c2ccccc2)N1Cc1ccco1 (stereo not drawn)	2.45 µM
Cn1cc(SCC(=O)Nc2nc3ccccc3s2)c2ccccc21	9.23 µM
O=C(Nc1nnc(-c2ccc3c(c2)OCCO3)o1)c1ccc(Cc2ccccc2)cc1	3.26 µM
O=C1c2ccccc2C(O)(Cc2ccccc2)N1C1CCCCC1 (stereo not drawn)	11.5 µM
O=C(Nc1ncc(Br)s1)C(Cc1ccccc1)n1cccc1 (stereo not drawn)	3.21 µM

With those in mind, consider the next compound.
Lookup: IC50 / E. coli BW25113 ΔtolC growth inhibition, OD615 / COc1ccc(NC(=O)c2cc(-c3cc(C)cc(C)c3O)n[nH]2)cc1Cl
1.95 µM

###

Tested on: E. coli BW25113 ΔtolC growth inhibition, OD615
assay_details: growth inhibitors of E. coli tolC mutant, dose response, strain BW25113 ΔtolC::kan (AID 617);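 also: growth read after 20 h at 37 °C with compound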
The following compounds are listed with their measured pIC50 values.
Remember, pIC50 is on a log scale: it is -log10 of the molar concentration.

Field: example entries. Status: answers known.
CCC1(C)Cc2ccccc2-c2nc3n(c(=O)c21)CCCCC3 (stereo not drawn)	4.80
CN(c1cccc(NC(=O)Nc2cccc(Cl)c2)c1)S(C)(=O)=O	4.90

Lookup: pIC50 / E. coli BW25113 ΔtolC growth inhibition, OD615 / O=S(=O)(c1ccccc1)c1nc(-c2ccco2)oc1N1CCCCCC1
4.95

###

System: E. coli BW25113 ΔtolC growth inhibition, OD615
assay_details: growth inhibitors of E. coli tolC mutant, dose response, strain BW25113 ΔtolC::kan (AID 617);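 also: growth read after 20 h at 37 °C with compound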
The following molecules are listed with their measured pIC50 values.
Remember, pIC50 is on a log scale: it is -log10 of the molar concentration.

Cc1cc(N2CCC(C(=O)Nc3ccc(F)cc3)CC2)nc(-c2ccccc2)n1	4.65
Cc1ccc(C2(c3ccc(C)cc3)NC(=O)N(Cc3c(C)noc3C)C2=O)cc1	5.19
CCn1c(N2CCN(C(=O)C34CC5CC(CC(C5)C3)C4)CC2)nc2ccccc21	4.76
N#C/C(=C\C1CC=CCC1)c1nc2ccccc2[nH]1 (stereo not drawn)	4.43

Fill in: pIC50 of CNc1nc(Nc2ccc(C(C)=O)cc2)nc(OC(C(F)(F)F)C(F)(F)F)n1 is ___
4.70

Okay, and CCn1c(CNc2cccc(Cl)c2)nnc1SCC(=O)OC1CCCCC1 ?
4.75

Okay, and Fc1ccc(CNc2nc(-c3ccco3)cc(C(F)(F)F)n2)cc1 ?
4.86

Okay, and O=C(c1ccco1)N1CCN(c2c(-c3ccccc3)c3cc(Cl)ccc3[nH]c2=O)CC1 ?
4.62

Okay, and O=C(CCn1c(=O)oc2ccccc21)N1CCN(C(c2ccccc2)c2ccccc2)CC1 ?
4.54

Okay, and CCCc1nc(SCC(=O)N2CCCc3ccccc32)c2c(=O)n(C)c(=O)n(C)c2n1 ?
4.94

Okay, and Clc1ccc(COC(Cn2ccnc2)c2ccc(Cl)cc2Cl)c(Cl)c1 (stereo not drawn) ?
5.49

Okay, and COc1ccc(CN(C(=O)CN2C(=O)COc3ccccc32)C2CCCC2)c(OC)c1 ?
4.72

Okay, and CN(c1ccccc1)S(=O)(=O)c1ccc(C(=O)Nc2nnc(-c3ccc(F)cc3)o2)cc1 ?
6.68
